Cited source for all entries: ChEMBL document CHEMBL1811836

- tested-system: Mu-type opioid receptor (Homo sapiens, UniProt P35372)
- Sequence (P35372 whole entry): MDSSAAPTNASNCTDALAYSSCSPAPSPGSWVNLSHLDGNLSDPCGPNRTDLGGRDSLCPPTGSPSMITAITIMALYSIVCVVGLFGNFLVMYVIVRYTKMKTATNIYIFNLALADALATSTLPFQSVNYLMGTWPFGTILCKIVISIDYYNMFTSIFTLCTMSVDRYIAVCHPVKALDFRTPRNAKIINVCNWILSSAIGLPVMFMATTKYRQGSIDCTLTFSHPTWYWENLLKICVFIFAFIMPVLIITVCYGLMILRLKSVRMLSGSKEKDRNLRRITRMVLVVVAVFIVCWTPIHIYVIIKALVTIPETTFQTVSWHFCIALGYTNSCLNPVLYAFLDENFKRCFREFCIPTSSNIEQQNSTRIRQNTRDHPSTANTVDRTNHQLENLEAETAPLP
- procedure-details: Displacement of [3H]DAMGO from human recombinant mu opioid receptor expressed in CHO cells after 2 hrs by liquid scintillation counting
measurement-name: Ki (nM)
Your answer is read as nM, so omit the unit and give the number.

Before answering, review these 3 worked examples.
compound="Oc1ccc2c(c1)[C@]13CCC[C@H](C1)N(CCc1ccccc1)C[C@H]3O2 (relative stereo)" measurement_name=Ki reading=67
compound="CN1C[C@H]2Oc3ccc(O)cc3[C@@]23CCC[C@@H]1C3 (relative stereo)" measurement_name=Ki reading=1500
compound="CN1C[C@H]2Oc3c(O)cccc3[C@@]23CCC[C@@H]1C3 (relative stereo)" measurement_name=Ki reading=619

Turning now to a further record.
Fill blank: measured Ki of the compound Oc1cccc2c1O[C@@H]1CN(CCc3ccccc3)[C@@H]3CCC[C@]21C3 (relative stereo) is ____. 1.1
